tested on: PC-3 PIP/flu tumor-bearing mice; experiment: Biodistribution studies in PC-3 PIP/flu tumor-bearing mice; details: 4 h p.i.; PC-3 PIP tumor
The following compounds are shown together with reported Tumor-to-blood values.

compound	assay_system	Tumor-to-blood
Cc1ccc(CCCC(=O)NCCCC[C@H](NC(=O)CCC(C(=O)O)N2CCN(CC(=O)O)CCN(CC(=O)O)CC2)C(=O)NC[C@H]2CC[C@H](C(=O)N[C@H](Cc3ccc4ccccc4c3)C(=O)NCCCC[C@@H](NC(=O)N[C@H](CCC(=O)O)C(=O)O)C(=O)O)CC2)cc1 (stereo partly shown) [^64Cu-PSMA-ALB-89, metal not drawn]	PC-3 PIP/flu tumor-bearing mice	3.61
O=C(O)CCC(NC(=O)NC(CCCCNC(=O)C(Cc1ccc2ccccc2c1)NC(=O)C1CCC(CNC(=O)C(CCCCNC(=O)CCCc2ccc(I)cc2)NC(=O)CN2CCN(CC(=O)O)CCN(CC(=O)O)CCN(CC(=O)O)CC2)CC1)C(=O)O)C(=O)O (stereo not shown) [^177Lu-PSMA-ALB-03, metal not drawn]	PC-3 PIP/flu tumor-bearing mice	0.83
Cc1ccc(CCCC(=O)NC(CC(=O)NC(CC(=O)NC(CC(=O)NC(CCCCNC(=O)CN2CCN(CC(=O)O)CCN(CC(=O)O)CCN(CC(=O)O)CC2)C(=O)NCC2CCC(C(=O)NC(Cc3ccc4ccccc4c3)C(=O)NCCCCC(NC(=O)NC(CCC(=O)O)C(=O)O)C(=O)O)CC2)C(=O)O)C(=O)O)C(=O)O)cc1 (stereo not shown) [^177Lu-PSMA-ALB-08, metal not drawn]	PC-3 PIP/flu tumor-bearing mice	116
Cc1ccc(CCCC(=O)NCCCCC(NC(=O)CN2CCN(CC(=O)O)CCN(CC(=O)O)CCN(CC(=O)O)CC2)C(=O)NCC2CCC(C(=O)NC(Cc3ccc4ccccc4c3)C(=O)NCCCCC(NC(=O)NC(CCC(=O)O)C(=O)O)C(=O)O)CC2)cc1 (stereo not shown) [44Sc-PSMA-ALB-06, metal not drawn]	PC-3 PIP/flu tumor-bearing mice	3.35

----------
The following molecules are shown together with reported Tumor-to-liver values.
test system: PC-3 PIP/flu tumor-bearing mice; assay: Biodistribution studies in PC-3 PIP/flu tumor-bearing mice; details: 48 h p.i.; PC-3 PIP tumor
assay_metric: Tumor-to-liver

molecule	quantitative_readout
O=C(O)CCC(NC(=O)NC(CCCCNC(=O)C(Cc1ccc2ccccc2c1)NC(=O)C1CCC(n2cc(CC(NC(=O)CN3CCN(CC(=O)O)CCN(CC(=O)O)CCN(CC(=O)O)CC3)C(=O)NC(CCCCNC(=O)CCCc3ccc(I)cc3)C(=O)O)nn2)CC1)C(=O)O)C(=O)O (centres unmarked) [^177Lu-PSMA-ALB-01, metal not drawn]	22.2
O=C(O)CCC(NC(=O)NC(CCCCNC(=O)C(Cc1ccc2ccccc2c1)NC(=O)C1CCC(CNC(=O)C(CCCCNC(=O)CCCc2ccc(I)cc2)NC(=O)CN2CCN(CC(=O)O)CCN(CC(=O)O)CCN(CC(=O)O)CC2)CC1)C(=O)O)C(=O)O (centres unmarked) [^177Lu-PSMA-ALB-03, metal not drawn]	29.0
O=C(O)CCC(NC(=O)NC(CCCCNC(=O)C(Cc1ccc2ccccc2c1)NC(=O)C1CCC(CNC(=O)C(CCCCNC(=O)CN2CCN(CC(=O)O)CCN(CC(=O)O)CCN(CC(=O)O)CC2)NC(=O)CCCCCCC(=O)NC(CCCCNC(=O)CCCc2ccc(I)cc2)C(=O)O)CC1)C(=O)O)C(=O)O (centres unmarked) [^177Lu-PSMA-ALB-04, metal not drawn]	7.16
O=C([O-])CN1CCN(CC(=O)[O-])CCN(CC(=O)NCC2CCC(C(=O)N[C@@H](Cc3ccc4ccccc4c3)C(=O)NCCCC[C@H](NC(=O)N[C@@H](CCC(=O)O)C(=O)O)C(=O)O)CC2)CCN(CC(=O)[O-])CC1.[177Lu+3] (some centres unmarked) [^177Lu-PSMA-617, reference compound]	710
O=C(O)CCC(NC(=O)NC(CCCCNC(=O)C(Cc1ccc2ccccc2c1)NC(=O)C1CCC(CNC(=O)C(CCCCNC(=O)CN2CCN(CC(=O)O)CCN(CC(=O)O)CCN(CC(=O)O)CC2)NC(=O)CC(NC(=O)CC(NC(=O)CC(NC(=O)CCCc2ccc(I)cc2)C(=O)O)C(=O)O)C(=O)O)CC1)C(=O)O)C(=O)O (centres unmarked) [^177Lu-PSMA-ALB-07, metal not drawn]	131

----------
The following molecules are shown together with reported Muscle values.
test system: PC-3 PIP/flu tumor-bearing mice; test: Biodistribution studies in PC-3 PIP/flu tumor-bearing mice; settings: 24 h p.i.

molecule	Muscle / % IA/g
O=C(O)CCC(NC(=O)NC(CCCCNC(=O)C(Cc1ccc2ccccc2c1)NC(=O)C1CCC(n2cc(CC(NC(=O)CN3CCN(CC(=O)O)CCN(CC(=O)O)CCN(CC(=O)O)CC3)C(=O)NC(CCCCNC(=O)CCCc3ccc(I)cc3)C(=O)O)nn2)CC1)C(=O)O)C(=O)O (centres unmarked) [^177Lu-PSMA-ALB-01, metal not drawn]	1.34
Cc1ccc(CCCC(=O)NC(CC(=O)NC(CC(=O)NC(CC(=O)NC(CCCCNC(=O)CN2CCN(CC(=O)O)CCN(CC(=O)O)CCN(CC(=O)O)CC2)C(=O)NCC2CCC(C(=O)NC(Cc3ccc4ccccc4c3)C(=O)NCCCCC(NC(=O)NC(CCC(=O)O)C(=O)O)C(=O)O)CC2)C(=O)O)C(=O)O)C(=O)O)cc1 (centres unmarked) [^177Lu-PSMA-ALB-08, metal not drawn]	0.02
Cc1ccc(CCCC(=O)NCCCCC(NC(=O)CN2CCN(CC(=O)O)CCN(CC(=O)O)CCN(CC(=O)O)CC2)C(=O)NCC2CCC(C(=O)NC(Cc3ccc4ccccc4c3)C(=O)NCCCCC(NC(=O)NC(CCC(=O)O)C(=O)O)C(=O)O)CC2)cc1 (centres unmarked) [^177Lu-PSMA-ALB-06, metal not drawn]	0.21
O=C(O)CCC(NC(=O)NC(CCCCNC(=O)C(Cc1ccc2ccccc2c1)NC(=O)C1CCC(CNC(=O)C(CCCCNC(=O)CN2CCN(CC(=O)O)CCN(CC(=O)O)CCN(CC(=O)O)CC2)NC(=O)CC(NC(=O)CC(NC(=O)CCCc2ccc(I)cc2)C(=O)O)C(=O)O)CC1)C(=O)O)C(=O)O (centres unmarked) [^177Lu-PSMA-ALB-05, metal not drawn]	0.19
O=C(O)CCC(NC(=O)NC(CCCCNC(=O)C(Cc1ccc2ccccc2c1)NC(=O)C1CCC(CNC(=O)C(CCCCNC(=O)CN2CCN(CC(=O)O)CCN(CC(=O)O)CCN(CC(=O)O)CC2)NC(=O)CCCCCCC(=O)NC(CCCCNC(=O)CCCc2ccc(I)cc2)C(=O)O)CC1)C(=O)O)C(=O)O (centres unmarked) [^177Lu-PSMA-ALB-04, metal not drawn]	5.82

----------
test system: PC-3 PIP/flu tumor-bearing mice; experiment: Biodistribution studies in PC-3 PIP/flu tumor-bearing mice; conditions: 96 h p.i.; PC-3 PIP tumor

compound	Tumor-to-kidney
O=C(O)CCC(NC(=O)NC(CCCCNC(=O)C(Cc1ccc2ccccc2c1)NC(=O)C1CCC(CNC(=O)C(CCCCNC(=O)CCCc2ccc(I)cc2)NC(=O)CN2CCN(CC(=O)O)CCN(CC(=O)O)CCN(CC(=O)O)CC2)CC1)C(=O)O)C(=O)O (stereo not shown) [^177Lu-PSMA-ALB-03, metal not drawn]	4.7
O=C(O)CCC(NC(=O)NC(CCCCNC(=O)C(Cc1ccc2ccccc2c1)NC(=O)C1CCC(CNC(=O)C(CCCCNC(=O)CN2CCN(CC(=O)O)CCN(CC(=O)O)CCN(CC(=O)O)CC2)NC(=O)CCCCCCC(=O)NC(CCCCNC(=O)CCCc2ccc(I)cc2)C(=O)O)CC1)C(=O)O)C(=O)O (stereo not shown) [^177Lu-PSMA-ALB-04, metal not drawn]	4.03
O=C(O)CCC(NC(=O)NC(CCCCNC(=O)C(Cc1ccc2ccccc2c1)NC(=O)C1CCC(n2cc(CC(NC(=O)CN3CCN(CC(=O)O)CCN(CC(=O)O)CCN(CC(=O)O)CC3)C(=O)NC(CCCCNC(=O)CCCc3ccc(I)cc3)C(=O)O)nn2)CC1)C(=O)O)C(=O)O (stereo not shown) [^177Lu-PSMA-ALB-01, metal not drawn]	4.80
O=C(O)CCC(NC(=O)NC(CCCCNC(=O)C(Cc1ccc2ccccc2c1)NC(=O)C1CCC(CNC(=O)C(CCCCNC(=O)CN2CCN(CC(=O)O)CCN(CC(=O)O)CCN(CC(=O)O)CC2)NC(=O)CC(NC(=O)CC(NC(=O)CCCc2ccc(I)cc2)C(=O)O)C(=O)O)CC1)C(=O)O)C(=O)O (stereo not shown) [^177Lu-PSMA-ALB-05, metal not drawn]	6.51

----------
system: PC-3 PIP/flu tumor-bearing mice; test: Biodistribution studies in PC-3 PIP/flu tumor-bearing mice; conditions: 24 h p.i.
The following compounds are shown together with reported Spleen values.

compound	assay_system	Spleen [% IA/g]
Cc1ccc(CCCC(=O)NCCCCC(NC(=O)CN2CCN(CC(=O)O)CCN(CC(=O)O)CCN(CC(=O)O)CC2)C(=O)NCC2CCC(C(=O)NC(Cc3ccc4ccccc4c3)C(=O)NCCCCC(NC(=O)NC(CCC(=O)O)C(=O)O)C(=O)O)CC2)cc1 (centres unmarked) [^177Lu-PSMA-ALB-06, metal not drawn]	PC-3 PIP/flu tumor-bearing mice	0.76
O=C(O)CCC(NC(=O)NC(CCCCNC(=O)C(Cc1ccc2ccccc2c1)NC(=O)C1CCC(CNC(=O)C(CCCCNC(=O)CN2CCN(CC(=O)O)CCN(CC(=O)O)CCN(CC(=O)O)CC2)NC(=O)CCCCCCC(=O)NC(CCCCNC(=O)CCCc2ccc(I)cc2)C(=O)O)CC1)C(=O)O)C(=O)O (centres unmarked) [^177Lu-PSMA-ALB-04, metal not drawn]	PC-3 PIP/flu tumor-bearing mice	13.6
